TARGET_DESC: UniProt P58681
Sequence (P58681 27-1050): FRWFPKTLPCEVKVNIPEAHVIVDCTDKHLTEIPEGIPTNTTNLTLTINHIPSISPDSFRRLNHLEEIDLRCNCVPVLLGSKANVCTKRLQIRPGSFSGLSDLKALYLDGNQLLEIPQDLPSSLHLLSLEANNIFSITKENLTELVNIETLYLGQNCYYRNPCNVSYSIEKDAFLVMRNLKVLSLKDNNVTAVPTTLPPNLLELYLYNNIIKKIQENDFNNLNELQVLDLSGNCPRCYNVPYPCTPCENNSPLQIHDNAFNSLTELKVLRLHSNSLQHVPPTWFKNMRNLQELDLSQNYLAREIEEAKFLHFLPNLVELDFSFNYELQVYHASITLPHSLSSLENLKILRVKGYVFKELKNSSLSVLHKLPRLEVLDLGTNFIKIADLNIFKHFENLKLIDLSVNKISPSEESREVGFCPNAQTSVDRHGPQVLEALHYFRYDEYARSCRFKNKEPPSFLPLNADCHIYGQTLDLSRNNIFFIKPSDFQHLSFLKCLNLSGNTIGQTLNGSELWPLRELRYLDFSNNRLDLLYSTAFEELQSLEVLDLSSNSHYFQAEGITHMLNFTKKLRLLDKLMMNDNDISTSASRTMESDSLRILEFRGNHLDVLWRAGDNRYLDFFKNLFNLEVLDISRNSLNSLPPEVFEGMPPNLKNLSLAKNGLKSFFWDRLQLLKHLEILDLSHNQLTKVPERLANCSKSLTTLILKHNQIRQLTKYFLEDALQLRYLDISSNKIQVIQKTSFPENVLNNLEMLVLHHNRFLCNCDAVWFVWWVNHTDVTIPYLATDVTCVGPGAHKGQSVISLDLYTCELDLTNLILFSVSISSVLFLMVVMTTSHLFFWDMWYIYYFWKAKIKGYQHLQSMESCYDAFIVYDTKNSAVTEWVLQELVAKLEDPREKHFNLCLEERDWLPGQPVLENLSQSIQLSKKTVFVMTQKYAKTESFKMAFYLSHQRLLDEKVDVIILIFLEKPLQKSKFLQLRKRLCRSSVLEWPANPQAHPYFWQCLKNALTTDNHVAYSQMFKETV
PROTOCOL: Short-term in vivo (STIV) assay: oral dosing, R848 s.c., plasma IL-6
Parameters: female BALB/c mice (Jackson Labs, Bar Harbor, Me.) were dosed by oral gavage; tissue Jackson Labs; host or cells: living female BALB/c mice; plasma IL-6 after s.c. R848
EXPERIMENTAL_CONDITIONS: 19 h; 100 mg/kg

# COMPOUND, % Suppression vs. Vehicle / %
data = [
    ("CCCN1CCN(C[C@H]2CN(c3ccc(C#N)c4ncccc34)C[C@@H](C)O2)CC1", 91),
    ("C[C@@H]1CN(c2ccc(C#N)c3ncccc23)C[C@H](CNc2ccccn2)O1", 17),
    ("CC1CN(c2ccc(C#N)c3ncccc23)CC(CN2CCNC(C)C2C)O1 (centres unmarked)", 63),
    ("CC1CN(c2ccc(C#N)c3ncccc23)CC(CN2CC(N3CCCCC3)C2)O1 (centres unmarked)", 78),
    ("C[C@@H]1CN(c2ccc(C#N)c3ncccc23)C[C@H](CNC2CCCCC2)O1", 100),
    ("CC1CN(c2ccc(C#N)c3ncccc23)CC(CN2CCN(C)CC2C)O1 (centres unmarked)", 98),
    ("C[C@@H]1CN(c2ccc(C#N)c3ncccc23)C[C@H](CN2CCC(N3CCCC3)CC2)O1", 98),
    ("C[C@@H]1CN(c2ccc(C#N)c3ncccc23)C[C@H](CN2CCC(N3CCCCC3)CC2)O1", 100),
    ("C[C@@H]1CN(C[C@H]2CN(c3ccc(C#N)c4ncccc34)C[C@@H](C)O2)CCN1", 58),
    ("C[C@@H]1CN(c2ccc(C#N)c3ncccc23)C[C@H](CNC2CCCC2)O1", 96),
    ("CC1CN(c2ccc(C#N)c3ncccc23)CC(CN2CCC(NC(=O)c3ccccc3)CC2)O1 (centres unmarked)", 59),
    ("C[C@@H]1CN(c2ccc(C#N)c3ncccc23)C[C@H](CN2CCC(O)CC2)O1", 45),
    ("Cc1cc(CO)cc(-c2ccc(C#N)c3ncccc23)c1", 71),
    ("C[C@@H]1CN(c2ccc(C#N)c3ncccc23)C[C@H](CN2CCN(C)CC2)O1", 97),
    ("C[C@@H]1CN(c2ccc(C#N)c3ncccc23)C[C@H](CN2CC[C@H](O)C2)O1", 35),
    ("CC1CN(c2ccc(C#N)c3ncccc23)CC(CN2CC(N3CCCC3)C2)O1 (centres unmarked)", 73),
    ("C[C@@H]1CN(c2ccc(C#N)c3ncccc23)C[C@H](CN2CCC(N)CC2)O1", 90),
]
